Catalogue of binders with associated % ttPeak, Ab 100 nM
- target-entity: Relipidated TF (Tissue Factor) (UniProt P13726 33-295, limits assumed)
- assay-overview: cell-based or functional assay
assay-metric: % ttPeak, Ab 100 nM (%)

[[record]]
binder = "5G9 (humanized TF8-5G9, CNTO 860) (antibody, V domains shown) VH: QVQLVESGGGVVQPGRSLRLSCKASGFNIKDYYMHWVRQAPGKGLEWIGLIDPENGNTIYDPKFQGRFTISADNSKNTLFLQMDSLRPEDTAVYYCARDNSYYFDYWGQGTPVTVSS VL: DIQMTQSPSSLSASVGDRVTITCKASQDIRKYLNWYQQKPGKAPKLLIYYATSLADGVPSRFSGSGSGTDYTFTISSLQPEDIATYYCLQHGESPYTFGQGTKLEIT"
quantitative_readout = 401

[[record]]
binder = "39A (antibody, human IgG1, V domains shown) VH: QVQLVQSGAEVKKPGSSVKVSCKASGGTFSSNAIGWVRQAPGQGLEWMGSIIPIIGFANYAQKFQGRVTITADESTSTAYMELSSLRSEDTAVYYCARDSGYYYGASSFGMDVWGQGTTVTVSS VL: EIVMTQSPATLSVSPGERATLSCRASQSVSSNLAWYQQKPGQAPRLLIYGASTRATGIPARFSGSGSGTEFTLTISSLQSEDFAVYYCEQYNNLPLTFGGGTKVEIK"
quantitative_readout = 465

[[record]]
binder = "25A (antibody, human IgG1, V domains shown) VH: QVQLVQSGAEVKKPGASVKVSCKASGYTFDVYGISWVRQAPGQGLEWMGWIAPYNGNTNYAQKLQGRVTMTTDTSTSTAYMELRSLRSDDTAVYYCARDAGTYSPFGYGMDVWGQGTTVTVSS VL: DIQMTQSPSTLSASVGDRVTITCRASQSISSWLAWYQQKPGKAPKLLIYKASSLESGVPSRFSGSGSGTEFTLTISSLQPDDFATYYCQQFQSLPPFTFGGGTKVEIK"
quantitative_readout = 9

[[record]]
binder = "TF-011 (antibody, V domains shown) VH: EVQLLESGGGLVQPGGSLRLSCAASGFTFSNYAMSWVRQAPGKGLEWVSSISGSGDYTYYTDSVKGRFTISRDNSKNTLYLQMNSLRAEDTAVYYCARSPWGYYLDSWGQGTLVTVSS VL: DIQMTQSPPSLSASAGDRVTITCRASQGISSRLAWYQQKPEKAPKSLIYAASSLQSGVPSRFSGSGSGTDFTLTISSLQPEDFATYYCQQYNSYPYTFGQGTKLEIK"
quantitative_readout = 353

